- target_under_test: MELK (human) (UniProt Q14680)
- Sequence (Q14680 whole entry, looked up): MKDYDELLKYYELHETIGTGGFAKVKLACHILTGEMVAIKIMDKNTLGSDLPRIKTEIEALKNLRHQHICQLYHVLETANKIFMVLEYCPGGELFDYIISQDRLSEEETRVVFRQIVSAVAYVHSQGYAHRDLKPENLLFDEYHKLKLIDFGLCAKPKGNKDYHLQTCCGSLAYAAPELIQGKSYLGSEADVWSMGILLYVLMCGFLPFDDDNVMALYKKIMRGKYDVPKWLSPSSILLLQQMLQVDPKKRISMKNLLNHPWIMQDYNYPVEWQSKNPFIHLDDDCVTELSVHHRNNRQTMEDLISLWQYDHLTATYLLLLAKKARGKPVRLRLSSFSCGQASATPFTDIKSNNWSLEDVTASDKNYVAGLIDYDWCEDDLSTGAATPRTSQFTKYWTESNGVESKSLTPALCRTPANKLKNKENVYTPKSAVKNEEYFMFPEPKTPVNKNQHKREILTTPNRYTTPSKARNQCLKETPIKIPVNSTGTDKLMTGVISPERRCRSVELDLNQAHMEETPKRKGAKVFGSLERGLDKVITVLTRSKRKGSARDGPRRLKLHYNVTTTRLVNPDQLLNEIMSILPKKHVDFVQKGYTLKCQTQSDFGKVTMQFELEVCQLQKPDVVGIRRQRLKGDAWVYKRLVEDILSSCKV
- experiment_notes: radiometric filter-binding kinase assay
- condition: compound 1.0 µM
Checkbox rule: residual activity lower than 80% = met; residual activity not lower than 80% = not met.

[[record]]
molecule = "CCNc1nc(Nc2cc(F)c(C(=O)N3CCOCC3)cc2OC)ncc1C(F)(F)F"
category = "not met"

[[record]]
molecule = "O=C(Nc1cccnc1)c1cc(-c2ccnc(F)c2)ccc1OCc1ccccc1"
category = "not met"

[[record]]
molecule = "CNC(=O)C1[C@H]2O[C@@](C)([C@@H]1N)n1c3ccccc3c3c4c(c5c6ccccc6n2c5c31)C(=O)NC4 (stereo not given in full)"
category = "met"

[[record]]
molecule = "NC1(c2ccc(-c3nc4ccn5c(=O)[nH]nc5c4cc3-c3ccccc3)cc2)CCC1"
category = "met"

[[record]]
molecule = "O=C(Nc1ccccc1-c1cn2c(CN3CCNCC3)csc2n1)c1cnc2ccccc2n1"
category = "met"

[[record]]
molecule = "O=c1c(O)c(-c2ccc(O)c(O)c2)oc2cc(O)c(O)c(O)c12"
category = "met"

[[record]]
molecule = "NCC(=O)Nc1ccc(-n2nc(C(F)(F)F)cc2-c2ccc3c(ccc4ccccc43)c2)cc1"
category = "not met"

[[record]]
molecule = "CCCCCc1ccc(/C=C/[C@H](O)[C@@H](CO)NC)cc1"
category = "not met"


q: Does this molecule meet the criterion residual activity < 80%? `O=C1NC(=S)N[C@@H]1Cc1c[nH]c2ccccc12`
a: not met

q: Does this molecule meet the criterion residual activity < 80%? `Cn1c(=O)c2c(ncn2C)n(C)c1=O`
a: not met

---

- target_under_test: UniProt P08069
- Sequence (P08069 whole entry, looked up): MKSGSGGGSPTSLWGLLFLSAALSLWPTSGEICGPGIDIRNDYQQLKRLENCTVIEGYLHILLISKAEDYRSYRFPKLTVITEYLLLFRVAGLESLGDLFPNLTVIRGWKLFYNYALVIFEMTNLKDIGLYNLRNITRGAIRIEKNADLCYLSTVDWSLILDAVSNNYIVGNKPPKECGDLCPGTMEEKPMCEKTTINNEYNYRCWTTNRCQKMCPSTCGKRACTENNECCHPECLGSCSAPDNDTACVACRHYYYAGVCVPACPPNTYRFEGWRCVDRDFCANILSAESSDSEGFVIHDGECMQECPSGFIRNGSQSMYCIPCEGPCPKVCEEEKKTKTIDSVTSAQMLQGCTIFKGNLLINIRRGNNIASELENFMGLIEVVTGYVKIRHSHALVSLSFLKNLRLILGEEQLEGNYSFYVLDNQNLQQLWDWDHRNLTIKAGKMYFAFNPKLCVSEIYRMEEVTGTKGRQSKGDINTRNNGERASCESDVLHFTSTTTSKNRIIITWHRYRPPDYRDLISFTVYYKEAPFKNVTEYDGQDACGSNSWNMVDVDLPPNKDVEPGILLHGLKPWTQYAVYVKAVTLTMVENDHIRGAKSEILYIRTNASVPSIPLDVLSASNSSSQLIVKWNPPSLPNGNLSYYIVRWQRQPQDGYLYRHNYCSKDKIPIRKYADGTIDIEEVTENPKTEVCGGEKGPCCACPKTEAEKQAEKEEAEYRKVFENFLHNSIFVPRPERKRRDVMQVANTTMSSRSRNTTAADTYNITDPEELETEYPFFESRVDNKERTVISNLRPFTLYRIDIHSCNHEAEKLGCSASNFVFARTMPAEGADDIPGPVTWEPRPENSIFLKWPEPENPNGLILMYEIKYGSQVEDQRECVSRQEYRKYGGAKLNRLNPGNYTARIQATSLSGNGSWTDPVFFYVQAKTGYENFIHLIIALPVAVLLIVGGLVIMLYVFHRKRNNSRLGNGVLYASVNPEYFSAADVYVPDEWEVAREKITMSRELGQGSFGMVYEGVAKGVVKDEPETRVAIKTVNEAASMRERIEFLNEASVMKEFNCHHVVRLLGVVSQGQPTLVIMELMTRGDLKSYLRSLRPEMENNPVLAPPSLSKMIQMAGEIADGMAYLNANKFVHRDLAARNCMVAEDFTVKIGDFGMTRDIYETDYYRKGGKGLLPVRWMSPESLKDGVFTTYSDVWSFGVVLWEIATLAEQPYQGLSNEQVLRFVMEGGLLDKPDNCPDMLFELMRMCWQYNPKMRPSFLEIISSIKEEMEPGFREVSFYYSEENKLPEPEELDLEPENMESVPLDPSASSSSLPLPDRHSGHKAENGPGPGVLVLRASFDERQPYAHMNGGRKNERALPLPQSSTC
- experiment_notes: radiometric filter-binding kinase assay
- condition: compound 0.1 µM
Recorded measurements of residual activity, one per entry
The reply should contain only the number, in %.

[[record]]
smiles_str = "O=C(N[C@@H](COc1ccc2[nH]c(=O)[nH]c2c1)c1ccccc1)c1cccn(Cc2ccc(F)c(F)c2)c1=O"
endpoint_label = "residual activity"
unit_symbol = "%"
recorded_measurement = 105

[[record]]
smiles_str = "COc1ccc(-n2ncc3cnc(Nc4cc(OC)c(OC)c(OCCCN5CCN(C)CC5)c4)nc32)cc1"
endpoint_label = "residual activity"
unit_symbol = "%"
recorded_measurement = 104

[[record]]
smiles_str = "Cn1c(=O)c2c(ncn2C)n(C)c1=O"
endpoint_label = "residual activity"
unit_symbol = "%"
recorded_measurement = 86

[[record]]
smiles_str = "NC1(c2ccc(-c3nc4ccn5c(=O)[nH]nc5c4cc3-c3ccccc3)cc2)CCC1"
endpoint_label = "residual activity"
unit_symbol = "%"
recorded_measurement = 116

[[record]]
smiles_str = "CNc1nc(-c2ccc3c(N)n[nH]c3c2)cc(N2C[C@@H](C(=O)NC3CCCCC3)CC[C@H]2C)n1"
endpoint_label = "residual activity"
unit_symbol = "%"
recorded_measurement = 115


# next molecule below
q: Value wanted: residual activity (UniProt P08069) of entry `Cc1ccc(-c2ccc3c(ccc4sc5c(c43)NC[C@@H](C)NC5=O)n2)cn1`
a: 101

---

- target_under_test: MARK2 (human) (UniProt Q7KZI7)
- Sequence (Q7KZI7 whole entry, looked up): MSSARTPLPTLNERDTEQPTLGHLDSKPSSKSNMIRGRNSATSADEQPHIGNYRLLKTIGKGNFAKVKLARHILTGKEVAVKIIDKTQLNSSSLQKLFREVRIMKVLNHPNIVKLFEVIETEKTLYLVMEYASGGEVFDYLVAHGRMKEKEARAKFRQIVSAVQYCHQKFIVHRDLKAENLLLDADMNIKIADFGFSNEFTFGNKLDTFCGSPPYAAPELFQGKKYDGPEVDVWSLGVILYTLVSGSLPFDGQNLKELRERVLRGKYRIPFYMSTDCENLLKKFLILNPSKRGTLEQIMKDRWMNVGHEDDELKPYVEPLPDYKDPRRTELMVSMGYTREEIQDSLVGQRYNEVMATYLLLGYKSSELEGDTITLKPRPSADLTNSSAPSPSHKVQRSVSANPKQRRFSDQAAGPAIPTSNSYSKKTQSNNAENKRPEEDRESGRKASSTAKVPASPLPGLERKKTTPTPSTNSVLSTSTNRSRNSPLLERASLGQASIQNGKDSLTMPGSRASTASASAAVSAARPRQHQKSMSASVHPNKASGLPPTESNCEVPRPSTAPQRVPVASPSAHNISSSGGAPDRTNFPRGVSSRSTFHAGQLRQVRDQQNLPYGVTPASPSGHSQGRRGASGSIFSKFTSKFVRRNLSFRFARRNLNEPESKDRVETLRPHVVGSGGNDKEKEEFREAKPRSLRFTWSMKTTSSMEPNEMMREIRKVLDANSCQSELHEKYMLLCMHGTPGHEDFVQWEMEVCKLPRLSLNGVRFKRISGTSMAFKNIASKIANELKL
- experiment_notes: radiometric filter-binding kinase assay
- condition: compound 0.1 µM
endpoint_label: residual activity (%)
The reply should contain only the number, in %.

The examples below pair each entry with its known result.
[[record]]
compound = "CCCCCc1ccc(/C=C/[C@H](O)[C@@H](CO)NC)cc1"
endpoint_label = "residual activity"
recorded_measurement = 89

[[record]]
compound = "CNc1nc(-c2ccc3c(N)n[nH]c3c2)cc(N2C[C@@H](C(=O)NC3CCCCC3)CC[C@H]2C)n1"
endpoint_label = "residual activity"
recorded_measurement = 114


q: What residual activity value was documented for this compound, `Cc1cccc(-c2nn(C(=S)Nc3ccccc3)cc2-c2ccnc3ccccc23)n1` ?
a: 121

q: What residual activity value was documented for this compound, `CN1CCN(CCOc2cc(OC3CCOCC3)c3c(Nc4c(Cl)ccc5c4OCO5)ncnc3c2)CC1` ?
a: 90

q: What residual activity value was documented for this compound, COc1cc(O)c2c(c1)[C@H]1OC1C[C@H](O)[C@H](O)C(=O)/C=C\C[C@H](C)OC2=O (some centres undefined) ?
a: 100

q: What residual activity value was documented for this compound, `c1ccc2c(-c3cnn4cc(-c5ccc(N6CCNCC6)cc5)cnc34)ccnc2c1` ?
a: 76

q: What residual activity value was documented for this compound, CC1=C(CO)C(=O)O[C@@H]([C@@H](C)[C@H]2CC[C@H]3[C@@H]4C[C@H]5O[C@]56[C@@H](O)C=CC(=O)[C@]6(C)C4CC[C@]23C)C1 (some centres undefined) ?
a: 109

q: What residual activity value was documented for this compound, `COc1cc(O)c2c(c1)/C=C/C[C@H](O)[C@H](O)C(=O)/C=C\C[C@H](C)OC2=O` ?
a: 109

q: What residual activity value was documented for this compound, `Cc1ccc(Sc2cnc(Nc3cccc(Br)n3)s2)cc1C(=O)N1CCN(C(=O)CN)CC1` ?
a: 81

q: What residual activity value was documented for this compound, `O=C(NCCCNc1nc(Nc2cccc(CN3CCOCC3)c2)ncc1C1CC1)C1CCC1` ?
a: 27

q: What residual activity value was documented for this compound, `Cc1ccc(-c2ccc3c(ccc4sc5c(c43)NC[C@@H](C)NC5=O)n2)cn1` ?
a: 116

---

- target_under_test: UniProt O75716
- Sequence (O75716 whole entry, looked up): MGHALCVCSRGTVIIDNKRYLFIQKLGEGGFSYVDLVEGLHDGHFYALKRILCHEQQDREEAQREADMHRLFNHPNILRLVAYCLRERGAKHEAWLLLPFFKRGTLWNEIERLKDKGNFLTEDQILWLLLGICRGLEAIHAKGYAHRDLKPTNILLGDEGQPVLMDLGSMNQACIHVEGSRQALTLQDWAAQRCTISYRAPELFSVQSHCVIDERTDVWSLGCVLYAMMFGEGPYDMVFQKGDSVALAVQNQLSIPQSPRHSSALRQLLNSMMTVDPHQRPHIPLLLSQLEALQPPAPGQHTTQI
- experiment_notes: radiometric filter-binding kinase assay
- condition: compound 1.0 µM
endpoint_label: residual activity (%)
The reply should contain only the number, in %.

The examples below pair each entry with its known result.
[[record]]
molecule = "Nc1cccc2c1CN(C1CCC(=O)NC1=O)C2=O (stereo not given)"
target_under_test = "UniProt O75716"
endpoint_label = "residual activity"
unit_symbol = "%"
recorded_measurement = 98

[[record]]
molecule = "O=C(NCCCNc1nc(Nc2cccc(CN3CCOCC3)c2)ncc1C1CC1)C1CCC1"
target_under_test = "UniProt O75716"
endpoint_label = "residual activity"
unit_symbol = "%"
recorded_measurement = 104

[[record]]
molecule = "Cc1ccc(=O)n(-c2ccccc2)c1"
target_under_test = "UniProt O75716"
endpoint_label = "residual activity"
unit_symbol = "%"
recorded_measurement = 87

[[record]]
molecule = "NC(=O)c1cc(-c2ccnc(NC3CCCCC3)c2)nc(N2CCNCC2)c1"
target_under_test = "UniProt O75716"
endpoint_label = "residual activity"
unit_symbol = "%"
recorded_measurement = 93

[[record]]
molecule = "Cc1nc(-c2ccc(OCC(C)C)c(C#N)c2)sc1C(=O)O"
target_under_test = "UniProt O75716"
endpoint_label = "residual activity"
unit_symbol = "%"
recorded_measurement = 46


q: What residual activity value was documented for this molecule, `CC(C)(C#N)c1ccc(N2C(=O)OCc3cnc4ccc(-c5cnc6ccccc6c5)cc4c32)cc1` ?
a: 87

---

- target_under_test: NTRK1 (human) (UniProt P04629)
- Sequence (P04629 whole entry, looked up): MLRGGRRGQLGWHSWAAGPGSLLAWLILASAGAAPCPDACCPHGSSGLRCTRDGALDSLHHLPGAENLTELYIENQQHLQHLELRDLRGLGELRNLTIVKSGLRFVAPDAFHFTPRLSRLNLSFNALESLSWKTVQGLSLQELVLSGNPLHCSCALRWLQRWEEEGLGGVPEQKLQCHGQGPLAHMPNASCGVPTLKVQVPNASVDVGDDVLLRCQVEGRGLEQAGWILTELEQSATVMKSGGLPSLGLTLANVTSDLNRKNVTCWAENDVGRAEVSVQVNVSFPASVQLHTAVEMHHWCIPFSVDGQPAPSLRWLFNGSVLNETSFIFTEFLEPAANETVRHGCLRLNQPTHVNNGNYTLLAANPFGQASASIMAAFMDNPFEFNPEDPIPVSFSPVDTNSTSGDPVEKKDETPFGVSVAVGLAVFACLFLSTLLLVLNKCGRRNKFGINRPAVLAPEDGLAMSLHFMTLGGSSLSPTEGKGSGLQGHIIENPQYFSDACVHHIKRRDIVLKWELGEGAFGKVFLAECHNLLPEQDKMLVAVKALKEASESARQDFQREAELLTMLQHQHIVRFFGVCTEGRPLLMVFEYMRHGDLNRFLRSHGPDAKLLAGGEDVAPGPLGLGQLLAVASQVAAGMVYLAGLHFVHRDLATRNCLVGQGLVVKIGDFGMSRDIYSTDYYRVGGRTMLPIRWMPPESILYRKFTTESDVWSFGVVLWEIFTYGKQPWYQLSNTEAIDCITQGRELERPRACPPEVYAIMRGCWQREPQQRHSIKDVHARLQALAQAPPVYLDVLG
- experiment_notes: radiometric filter-binding kinase assay
- condition: compound 0.1 µM
endpoint_label: residual activity (%)
The reply should contain only the number, in %.

q: Value wanted: residual activity (NTRK1 (human) (UniProt P04629)) of entry `COc1ccc(-n2ncc3cnc(Nc4cc(OC)c(OC)c(OCCCN5CCN(C)CC5)c4)nc32)cc1`
a: 32

---

- target_under_test: UniProtKB Q9P0L2
- Sequence (Q9P0L2 whole entry, looked up): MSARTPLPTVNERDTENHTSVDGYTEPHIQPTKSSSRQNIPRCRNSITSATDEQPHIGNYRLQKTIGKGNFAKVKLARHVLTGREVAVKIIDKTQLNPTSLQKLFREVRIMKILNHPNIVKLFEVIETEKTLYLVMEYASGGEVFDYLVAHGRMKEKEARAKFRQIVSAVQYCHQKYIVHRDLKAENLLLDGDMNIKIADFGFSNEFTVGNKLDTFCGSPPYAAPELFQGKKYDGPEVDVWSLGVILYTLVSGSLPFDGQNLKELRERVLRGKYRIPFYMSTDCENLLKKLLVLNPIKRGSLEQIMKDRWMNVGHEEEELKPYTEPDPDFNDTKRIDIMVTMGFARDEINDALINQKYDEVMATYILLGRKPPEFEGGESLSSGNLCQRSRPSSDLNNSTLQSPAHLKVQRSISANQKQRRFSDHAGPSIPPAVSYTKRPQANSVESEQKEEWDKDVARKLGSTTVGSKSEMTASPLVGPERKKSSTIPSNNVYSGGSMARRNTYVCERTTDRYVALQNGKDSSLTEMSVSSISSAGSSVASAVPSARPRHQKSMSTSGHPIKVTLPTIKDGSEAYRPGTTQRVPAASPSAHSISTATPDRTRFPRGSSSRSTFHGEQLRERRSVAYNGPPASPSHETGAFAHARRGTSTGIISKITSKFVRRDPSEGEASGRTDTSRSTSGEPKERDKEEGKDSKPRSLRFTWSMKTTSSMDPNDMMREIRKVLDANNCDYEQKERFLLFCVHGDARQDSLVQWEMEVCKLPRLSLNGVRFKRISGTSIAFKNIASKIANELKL
- experiment_notes: radiometric filter-binding kinase assay
- condition: compound 1.0 µM
endpoint_label: residual activity (%)
The reply should contain only the number, in %.

q: What residual activity value was documented for this molecule, `NS(=O)(=O)OC[C@@H]1C[C@@H](n2ccc3c(N[C@H]4CCc5ccccc54)ncnc32)C[C@@H]1O` ?
a: 100

q: What residual activity value was documented for this molecule, `O=C(Nc1nc2cc(C(F)(F)F)cc(NC3CC3)n2n1)c1cccnc1` ?
a: 86

q: What residual activity value was documented for this molecule, `O=C(NOC[C@H](O)CO)c1ccc(F)c(F)c1Nc1ccc(I)cc1Cl` ?
a: 85

q: What residual activity value was documented for this molecule, `NC(=O)c1cc2c(-c3cccc(-c4ccccc4)c3)cnc(N)c2s1` ?
a: 66

q: What residual activity value was documented for this molecule, `NC(=O)c1ccc(-c2ccc(Oc3cncc4sc(-c5nn[nH]n5)cc34)cc2)cc1` ?
a: 89

q: What residual activity value was documented for this molecule, `FC(F)(F)c1ccc(-c2ccc(Oc3cncc4sc(-c5nn[nH]n5)cc34)cc2)cc1` ?
a: 99

q: What residual activity value was documented for this molecule, `Cc1ccc(-c2ccc3c(ccc4sc5c(c43)NC[C@@H](C)NC5=O)n2)cn1` ?
a: 107

q: What residual activity value was documented for this molecule, `NCC(=O)Nc1ccc(-n2nc(C(F)(F)F)cc2-c2ccc3c(ccc4ccccc43)c2)cc1` ?
a: 87

q: What residual activity value was documented for this molecule, `Cc1cccc(-c2nn(C(=S)Nc3ccccc3)cc2-c2ccnc3ccccc23)n1` ?
a: 113
